System: M. mycetomatis strain mm55
Test: IC50 and MIC determination, CellTiter-Glo, strain mm55
Assay type: cell-based, Madurella mycetomatis
Conditions: Madurella mycetomatis, concentration with complete growth inhibition
Structures can show the parent of a compound that is named as a salt.
Record form. Attribute: MIC. Fill in for each entry.
Answer in µM, number only, no unit symbol.

Name the reported MIC value associated with the compound C[C@@H](c1nc(-c2ccc(C#N)cc2)cs1)[C@](O)(Cn1cncn1)c1ccc(F)cc1F [Ravuconazole] 0.25

Field entry: Fc1ccc(C(c2ccccc2)(c2ccccc2F)n2ccnc2)cc1 (stereo not shown) [Flutrimazole] 2

Field entry: C=CCOC(Cn1ccnc1)c1ccc(Cl)cc1Cl (stereo not shown) [Enilconazole sulphate] 2

Field entry: CC(C)(C)c1cc(C=C(C#N)C#N)cc(C(C)(C)C)c1O [Tyrphostin 9] 2

Field entry: C/C(=N\NC(=S)N1CCC1)c1ccccn1 [nsc319726] 2

Field entry: C[C@@H](c1ncncc1F)[C@](O)(Cn1cncn1)c1ccc(F)cc1F [Voriconazole] 1

Field entry: Clc1ccc(C(Cn2ccnc2)OCc2c(Cl)cccc2Cl)c(Cl)c1 (stereo not shown) [Isoconazole nitrate (Travogen), Isoconazole nitrate] 2

Field entry: CC[C@@H]([C@H](C)O)n1ncn(-c2ccc(N3CCN(c4ccc(OC[C@@H]5CO[C@@](Cn6cncn6)(c6ccc(F)cc6F)C5)cc4)CC3)cc2)c1=O [Posaconazole] 0.25

Field entry: C=C1CCN([C@H](C)[C@](O)(Cn2cncn2)c2ccc(F)cc2F)CC1 [Efinaconazole] 0.06

Field entry: CC(=O)N1CCN(c2ccc(OCC3COC(Cn4ccnc4)(c4ccc(Cl)cc4Cl)O3)cc2)CC1 (stereo not shown) [Ketoconazole] 1

Field entry: CCCCC(CC)CNC(=N)NC(=N)NCCCCCCNC(=N)NC(=N)NCC(CC)CCCC (stereo not shown) [Alexidine dihydrochloride] 2

Field entry: Clc1ccc(C(Cn2ccnc2)OCc2ccsc2Cl)c(Cl)c1 (stereo not shown) [Tioconazole] 2

Field entry: Clc1ccccc1C(c1ccccc1)(c1ccccc1)n1ccnc1 [Clotrimazole] 1

Field entry: Oc1c(Br)cc(Br)c2cccnc12 [Broxyquinoline] 2

Field entry: O=C(Nc1cc(C(F)(F)F)cc(C(F)(F)F)c1)c1cc(Cl)ccc1O [IKK2 inhibitor V (IMD-0354), IMD-0354] 2

Field entry: Clc1ccc(COC(Cn2ccnc2)c2ccc(Cl)cc2Cl)c(Cl)c1 (stereo not shown) [Miconazole nitrate] 1
